Target: T1, orthogonal hCD122 receptor (hoRb), hCD122 with H133D and Y134F (human, UniProt P14784 27-550); note: reference of the scale not given here
T1 sequence: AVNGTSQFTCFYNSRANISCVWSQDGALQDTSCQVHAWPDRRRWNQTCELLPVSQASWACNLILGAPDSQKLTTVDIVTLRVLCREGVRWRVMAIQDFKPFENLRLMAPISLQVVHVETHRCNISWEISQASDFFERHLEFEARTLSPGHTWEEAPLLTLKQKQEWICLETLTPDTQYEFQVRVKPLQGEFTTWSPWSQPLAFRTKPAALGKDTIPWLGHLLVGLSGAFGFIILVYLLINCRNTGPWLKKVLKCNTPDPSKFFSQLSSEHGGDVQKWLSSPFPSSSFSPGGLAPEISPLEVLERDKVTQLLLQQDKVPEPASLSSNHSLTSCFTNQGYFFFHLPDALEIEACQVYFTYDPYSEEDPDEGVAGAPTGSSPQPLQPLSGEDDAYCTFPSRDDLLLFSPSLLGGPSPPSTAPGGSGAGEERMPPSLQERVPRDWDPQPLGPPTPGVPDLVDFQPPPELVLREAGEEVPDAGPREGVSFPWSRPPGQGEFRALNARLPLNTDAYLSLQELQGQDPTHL
Assay: cell-based or functional assay
Consider the following binders and their measured Relative Proliferation Fold Change 3F8 1:50 readings.
Answer format: numeric, fold implied, no suffix.

For orientation, consider the following solved cases.
{"binder": "C125A, SQVLKA (ligand) APTSSSTKKTQLQLSQLLVLLKAILNGINNYKNPKLTRMLTFKFYMPKKATELKHLQCLEEELKPLEEVLNLAQSKNFHLRPRDLISNINVIVLELKGSETTFMCEYADETATIVEFLNRWITFAQSIISTLT", "observed": 5.3}
{"binder": "I92F, SQVLKA (ligand) APTSSSTKKTQLQLSQLLVLLKAILNGINNYKNPKLTRMLTFKFYMPKKATELKHLQCLEEELKPLEEVLNLAQSKNFHLRPRDLISNINVFVLELKGSETTFMCEYADETATIVEFLNRWITFCQSIISTLT", "observed": 18.4}
{"binder": "Q126E, SQVLKA (ligand) APTSSSTKKTQLQLSQLLVLLKAILNGINNYKNPKLTRMLTFKFYMPKKATELKHLQCLEEELKPLEEVLNLAQSKNFHLRPRDLISNINVIVLELKGSETTFMCEYADETATIVEFLNRWITFCESIISTLT", "observed": 6.4}
{"binder": "L18Q, SQVLKA (ligand) APTSSSTKKTQLQLSQLQVLLKAILNGINNYKNPKLTRMLTFKFYMPKKATELKHLQCLEEELKPLEEVLNLAQSKNFHLRPRDLISNINVIVLELKGSETTFMCEYADETATIVEFLNRWITFCQSIISTLT", "observed": 47.2}
{"binder": "SQVLIA (ligand) APTSSSTKKTQLQLSQLLVLLIAILNGINNYKNPKLTRMLTFKFYMPKKATELKHLQCLEEELKPLEEVLNLAQSKNFHLRPRDLISNINVIVLELKGSETTFMCEYADETATIVEFLNRWITFCQSIISTLT", "observed": 0.77}
{"binder": "M39V, SQVLKA (ligand) APTSSSTKKTQLQLSQLLVLLKAILNGINNYKNPKLTRVLTFKFYMPKKATELKHLQCLEEELKPLEEVLNLAQSKNFHLRPRDLISNINVIVLELKGSETTFMCEYADETATIVEFLNRWITFCQSIISTLT", "observed": 16.7}
{"binder": "C125S, SQVLKA (ligand) APTSSSTKKTQLQLSQLLVLLKAILNGINNYKNPKLTRMLTFKFYMPKKATELKHLQCLEEELKPLEEVLNLAQSKNFHLRPRDLISNINVIVLELKGSETTFMCEYADETATIVEFLNRWITFSQSIISTLT", "observed": 26.9}
{"binder": "SQVLGA (ligand) APTSSSTKKTQLQLSQLLVLLGAILNGINNYKNPKLTRMLTFKFYMPKKATELKHLQCLEEELKPLEEVLNLAQSKNFHLRPRDLISNINVIVLELKGSETTFMCEYADETATIVEFLNRWITFCQSIISTLT", "observed": 5.06}
{"binder": "SQVLEA (ligand) APTSSSTKKTQLQLSQLLVLLEAILNGINNYKNPKLTRMLTFKFYMPKKATELKHLQCLEEELKPLEEVLNLAQSKNFHLRPRDLISNINVIVLELKGSETTFMCEYADETATIVEFLNRWITFCQSIISTLT", "observed": 13.1}
{"binder": "L18F, SQVLKA (ligand) APTSSSTKKTQLQLSQLFVLLKAILNGINNYKNPKLTRMLTFKFYMPKKATELKHLQCLEEELKPLEEVLNLAQSKNFHLRPRDLISNINVIVLELKGSETTFMCEYADETATIVEFLNRWITFCQSIISTLT", "observed": 11.8}

Shifting focus to the binder that follows.
In: Dear colleague, I am looking for the recorded Relative Proliferation Fold Change 3F8 1:50 of the following binder: T51I, SQVLKA (ligand) APTSSSTKKTQLQLSQLLVLLKAILNGINNYKNPKLTRMLTFKFYMPKKAIELKHLQCLEEELKPLEEVLNLAQSKNFHLRPRDLISNINVIVLELKGSETTFMCEYADETATIVEFLNRWITFCQSIISTLT
Out: 15.6
